- System: A549 (lung carcinoma)
- Test: MTS cell viability assay, A549
- Format: cell-based
- Condition: Homo sapiens, A549; MTS assay; read-out: A549 IC50
pIC50: −log10 of the molar value.
# Lookup of reported pIC50 keyed by entry

* C[C@H](Cc1ccc(OCCOCCO)c(OCCOCCO)c1)[C@@H](C)Cc1ccc(OCCOCCO)c(OCCOCCO)c1 | 4.05 to 4.10
* C[C@H](Cc1ccc(OCCCN2CCCCC2)c(OCCCN2CCCCC2)c1)[C@@H](C)Cc1ccc(OCCCN2CCCCC2)c(OCCCN2CCCCC2)c1 | 6.05 to 6.10
* C[C@H](Cc1ccc(OCCCCN2CCOCC2)c(OCCCCN2CCOCC2)c1)[C@@H](C)Cc1ccc(OCCCCN2CCOCC2)c(OCCCCN2CCOCC2)c1 | 5.30 to 6.00
* C[C@H](Cc1ccc(OCCF)c(OCCF)c1)[C@@H](C)Cc1ccc(OCCF)c(OCCF)c1 | < 4.00

Please report the measured pIC50 for C[C@H](Cc1ccc(OCCCCN2CCCCC2)c(OCCCCN2CCCCC2)c1)[C@@H](C)Cc1ccc(OCCCCN2CCCCC2)c(OCCCCN2CCCCC2)c1
5.30 to 6.00

----------
- Test system: HeLa (cervical adenocarcinoma)
- Test: MTS cell viability assay, HeLa
- Assay type: cell-based
- Condition: Homo sapiens, HeLa, MTS assay; read-out: HeLa IC50
- Protocol: Studies performed regarding cytotoxicity included the well-known MTS, Trypan Blue and MTT protocols. The MTS studies were done using the CellTiter 96®AQueous One Solution Cell Proliferation Assay (Promega Corporation, Madison, Wis. USA). […] The measurement of the absorbance of the formazan is read at 490 nm. The ready to use reagent is added directly to the cells in media in 96-well plates, incubated 1-4 hours and the results are recorded by the plate reader. […]
Property: IC50

Past entries and their recorded results:
- C[C@H](Cc1ccc(OCCCCN2CCCCC2)c(OCCCCN2CCCCC2)c1)[C@@H](C)Cc1ccc(OCCCCN2CCCCC2)c(OCCCCN2CCCCC2)c1: 5 to 10 µM
- C[C@H](Cc1ccc(OCCOCCO)c(OCCOCCO)c1)[C@@H](C)Cc1ccc(OCCOCCO)c(OCCOCCO)c1: > 100 µM
- C[C@H](Cc1ccc(OCCCCN2CCOCC2)c(OCCCCN2CCOCC2)c1)[C@@H](C)Cc1ccc(OCCCCN2CCOCC2)c(OCCCCN2CCOCC2)c1: 5 to 10 µM

For C[C@H](Cc1ccc(OCCF)c(OCCF)c1)[C@@H](C)Cc1ccc(OCCF)c(OCCF)c1 , write its IC50.
> 100 µM

State its IC50: C[C@H](Cc1ccc(OCCCN2CCCCC2)c(OCCCN2CCCCC2)c1)[C@@H](C)Cc1ccc(OCCCN2CCCCC2)c(OCCCN2CCCCC2)c1
2 to 3 µM

----------
- Test system: HeLa (cervical adenocarcinoma)
- Test: MTS cell viability assay, HeLa
- Type: cell-based
- Condition: MTS assay; read-out: HeLa IC50
- Description: Studies performed regarding cytotoxicity included the well-known MTS, Trypan Blue and MTT protocols. The MTS studies were done using the CellTiter 96®AQueous One Solution Cell Proliferation Assay (Promega Corporation, Madison, Wis. USA). […] The measurement of the absorbance of the formazan is read at 490 nm. The ready to use reagent is added directly to the cells in media in 96-well plates, incubated 1-4 hours and the results are recorded by the plate reader. […]
pIC50: −log10 of the molar value.
Property: pIC50

Quick one: give measured pIC50 for C[C@H](Cc1ccc(OCCCN2CCCCC2)c(OCCCN2CCCCC2)c1)[C@@H](C)Cc1ccc(OCCCN2CCCCC2)c(OCCCN2CCCCC2)c1.Cl.Cl.Cl.Cl
5.30 to 6.00
